meta.source: a collection of fitness landscapes (doi:10.1016/j.celrep.2020.107928)

B1: Caulobacter ParB omega fusion; a variant is named by its letters at X, in order, B8GW30 (parent)
chain: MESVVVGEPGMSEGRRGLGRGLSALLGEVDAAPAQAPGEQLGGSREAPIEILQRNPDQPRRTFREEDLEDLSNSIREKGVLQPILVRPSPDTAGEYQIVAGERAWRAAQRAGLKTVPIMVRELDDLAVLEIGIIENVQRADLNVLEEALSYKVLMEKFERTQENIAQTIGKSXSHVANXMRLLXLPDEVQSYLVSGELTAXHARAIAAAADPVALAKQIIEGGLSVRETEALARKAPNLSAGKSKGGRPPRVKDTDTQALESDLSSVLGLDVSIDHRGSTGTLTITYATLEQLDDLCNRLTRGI

Variants of: B1
Assay: one-hybrid fitness for binding parS DNA (scaled: cognate 1, non-cognate 0); higher = stronger binding
Settings: with parS DNA site
The full ranking holds about 81,000 sequences; the median of “one-hybrid fitness for binding parS DNA” is about -0.17, and the highest 2% start at about 0.51. The sample holds the highest values, similar sequences and a random draw of the others, so the mix is not that of the screen.
Reported one-hybrid fitness for binding parS DNA values follow for various variants

Guide cases for one-hybrid fitness for binding parS DNA, answers given:
# MUTATION LABEL, one-hybrid fitness for binding parS DNA
data = [
    ("RWEI", "≤ 0.2"),
    ("GDDN", "≤ 0.2"),
]

Request: What does the record list as one-hybrid fitness for binding parS DNA for ANCC ?
Response: ≤ 0.2

Request: // returns reported one-hybrid fitness for binding parS DNA for input PLFV
Response: ≤ 0.2

Request: What value of measured one-hybrid fitness for binding parS DNA is listed for IRQT ?
Response: ≤ 0.2

Request: Consider the variant LRQS and give its measured one-hybrid fitness for binding parS DNA.
Response: ≤ 0.2

Request: Given the variant RWEN , what is its reported one-hybrid fitness for binding parS DNA?
Response: ≤ 0.2

Request: Need one-hybrid fitness for binding parS DNA, item QKHC
Response: ≤ 0.2

Request: Look at this variant and give its reported one-hybrid fitness for binding parS DNA. RWEG
Response: 0.563

Request: Need one-hybrid fitness for binding parS DNA of IRPV , thanks.
Response: ≤ 0.2
